molecular target: Nociceptin receptor (Homo sapiens, UniProt P41146); experiment: Displacement of [3H]NOC from human ORL1 receptor expressed in HEK293 cells; type: cell-based
Sequence (P41146 whole entry): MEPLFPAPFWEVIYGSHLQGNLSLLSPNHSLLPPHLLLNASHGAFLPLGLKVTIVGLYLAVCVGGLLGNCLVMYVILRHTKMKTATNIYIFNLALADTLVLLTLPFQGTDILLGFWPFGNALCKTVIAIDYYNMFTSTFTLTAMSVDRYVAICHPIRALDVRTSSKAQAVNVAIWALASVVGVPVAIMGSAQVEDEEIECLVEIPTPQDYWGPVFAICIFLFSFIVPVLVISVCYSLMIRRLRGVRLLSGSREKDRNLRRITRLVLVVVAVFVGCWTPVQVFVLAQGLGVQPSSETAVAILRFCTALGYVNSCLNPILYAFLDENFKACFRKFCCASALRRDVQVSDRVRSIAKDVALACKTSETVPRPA
property name: IC50 (nM)
Answers are plain numbers, in nM.

Example entries and their recorded answers appear below.
| smiles notation | system | unit string | IC50 |
| --- | --- | --- | --- |
| CC[C@H](C)[C@H](NC(=O)[C@H](CCCN=C(N)N)NC(=O)[C@H](Cc1ccc(O)cc1)NC(=O)[C@H](Cc1ccc(O)cc1)NC(=O)[C@H](CCCN=C(N)N)NC(C)=O)C(=O)N[C@@H](CCCCN)C(=O)N[C@@H](CCCCNC(=O)[C@H](CO)NC(=O)[C@@H]1CCCN1C(=O)[C@H](Cc1ccc(O)cc1)NC(=O)CNC(=O)[C@H](Cc1ccccc1)NC(=O)[C@@H](C)NC(=O)[C@@H](N)Cc1ccc(O)cc1)C(N)=O | Nociceptin receptor (Homo sapiens, UniProt P41146) | nM | 11.6 |
| CC[C@H](C)[C@H](NC(=O)[C@H](CCCN=C(N)N)NC(=O)[C@H](Cc1ccc(O)cc1)NC(=O)[C@H](Cc1ccc(O)cc1)NC(=O)[C@H](CCCN=C(N)N)NC(C)=O)C(=O)N[C@@H](CCCCN)C(=O)NCC(=O)NCC(=O)NCC(=O)N[C@@H](CCCCNC(=O)CNC(=O)CNC(=O)[C@H](CO)NC(=O)[C@@H]1CCCN1C(=O)[C@H](Cc1ccc(O)cc1)NC(=O)CNC(=O)[C@H](Cc1ccccc1)NC(=O)[C@@H](C)NC(=O)[C@@H](N)Cc1ccc(O)cc1)C(N)=O | Nociceptin receptor (Homo sapiens, UniProt P41146) | nM | 0.0464 |
| CC[C@H](C)[C@H](NC(=O)[C@H](CCCN=C(N)N)NC(=O)[C@H](Cc1ccc(O)cc1)NC(=O)[C@H](Cc1ccc(O)cc1)NC(=O)[C@H](CCCN=C(N)N)NC(C)=O)C(=O)N[C@@H](CCCCN)C(=O)NCC(=O)NCC(=O)NCC(=O)N[C@@H](CCCCNC(=O)CNC(=O)CNC(=O)CNC(=O)CNC(=O)CNC(=O)CCNC(=O)[C@H](Cc1ccccc1)NC(=O)[C@@H](CCCN=C(N)N)NC(=O)[C@@H](N)Cc1ccc(O)cc1)C(N)=O | Nociceptin receptor (Homo sapiens, UniProt P41146) | nM | 0.0803 |

The record that follows has no IC50 shown yet.
Q: Given "CC[C@H](C)[C@H](NC(=O)[C@H](CCCN=C(N)N)NC(=O)[C@H](Cc1ccc(O)cc1)NC(=O)[C@H](Cc1ccc(O)cc1)NC(=O)[C@H](CCCN=C(N)N)NC(C)=O)C(=O)N[C@@H](CCCCN)C(=O)N[C@@H](CCCCNC(=O)CCNC(=O)[C@H](Cc1ccccc1)NC(=O)[C@@H](CCCN=C(N)N)NC(=O)[C@@H](N)Cc1ccc(O)cc1)C(N)=O" , respond with its IC50.
Ans: 0.789

----------
target: UniProt P33535; assay: Displacement of [3H]DAMGO from mu opioid receptor in rat brain homogenate; assay type: tissue-based
Sequence (P33535 whole entry): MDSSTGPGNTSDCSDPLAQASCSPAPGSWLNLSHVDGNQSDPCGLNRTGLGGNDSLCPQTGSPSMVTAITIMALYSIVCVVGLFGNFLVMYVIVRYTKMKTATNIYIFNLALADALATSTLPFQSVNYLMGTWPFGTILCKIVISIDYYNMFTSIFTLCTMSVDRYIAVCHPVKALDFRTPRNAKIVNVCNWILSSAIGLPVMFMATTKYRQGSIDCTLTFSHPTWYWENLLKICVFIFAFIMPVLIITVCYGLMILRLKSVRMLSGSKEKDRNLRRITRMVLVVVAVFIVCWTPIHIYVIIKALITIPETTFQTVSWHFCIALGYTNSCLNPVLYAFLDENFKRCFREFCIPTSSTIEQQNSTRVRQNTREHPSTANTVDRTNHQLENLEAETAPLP
Non-standard residues stand in square brackets, D forms with d. Residues, ends and D or L forms follow the SMILES beside them. βAla = NCCC(=O)O
Task for the reader: assign each of the following molecules its reported log10 of IC50.
All values: base-10 log of IC50 in nM.

| molecule | system | log10 of IC50 |
| --- | --- | --- |
| N=C(N)NCCC[C@@H](NC(=O)[C@@H](N)Cc1ccc(O)cc1)C(=O)N[C@@H](Cc1ccccc1)C(=O)NCCC(N)=O (H-Y[dR]F[βAla]-NH2) | UniProt P33535 | 0.07 |

Give log10 of IC50 for all molecules that follow.
1. CC[C@H](C)[C@H](NC(=O)[C@H](CCCN=C(N)N)NC(=O)[C@H](Cc1ccc(O)cc1)NC(=O)[C@H](Cc1ccc(O)cc1)NC(=O)[C@H](CCCN=C(N)N)NC(C)=O)C(=O)N[C@@H](CCCCN)C(=O)NCC(=O)NCC(=O)NCC(=O)N[C@@H](CCCCNC(=O)CNC(=O)CNC(=O)CNC(=O)CNC(=O)CNC(=O)CCNC(=O)[C@H](Cc1ccccc1)NC(=O)[C@@H](CCCN=C(N)N)NC(=O)[C@@H](N)Cc1ccc(O)cc1)C(N)=O
2. CC[C@H](C)[C@H](NC(=O)[C@H](CCCN=C(N)N)NC(=O)[C@H](Cc1ccc(O)cc1)NC(=O)[C@H](Cc1ccc(O)cc1)NC(=O)[C@H](CCCN=C(N)N)NC(C)=O)C(=O)N[C@@H](CCCCN)C(=O)N[C@@H](CCCCNC(=O)CCNC(=O)[C@H](Cc1ccccc1)NC(=O)[C@@H](CCCN=C(N)N)NC(=O)[C@@H](N)Cc1ccc(O)cc1)C(N)=O
3. C[C@@H](NC(=O)[C@@H](N)Cc1ccc(O)cc1)C(=O)N[C@@H](Cc1ccccc1)C(=O)NCC(=O)N[C@@H](Cc1ccc(O)cc1)C(=O)N1CCC[C@H]1C(=O)N[C@@H](CO)C(N)=O
4. CC[C@H](C)[C@H](NC(=O)[C@H](CCCN=C(N)N)NC(=O)[C@H](Cc1ccc(O)cc1)NC(=O)[C@H](Cc1ccc(O)cc1)NC(=O)[C@H](CCCN=C(N)N)NC(C)=O)C(=O)N[C@@H](CCCCN)C(=O)NCC(=O)NCC(=O)NCC(=O)N[C@@H](CCCCNC(=O)CNC(=O)CNC(=O)[C@H](CO)NC(=O)[C@@H]1CCCN1C(=O)[C@H](Cc1ccc(O)cc1)NC(=O)CNC(=O)[C@H](Cc1ccccc1)NC(=O)[C@@H](C)NC(=O)[C@@H](N)Cc1ccc(O)cc1)C(N)=O

Ans:
1: -1.32; 2: 0.44; 3: -0.27; 4: -2.63

Where do these numbers come from? They come from ChEMBL document CHEMBL1149474.
